Below, each of the variants is paired with its reported protein stability index value.
B1: FBXO33 (parent)
chain: RLRGLLRVLRGRPGAGSRRRGRMA

- Variants of: B1
- measurement_protocol: protein stability index of a GFP-peptide fusion (GPS, HEK-293T) (PSI 1-6); higher = more stable;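 note: lentivirally expressed fusions sorted by FACS into six bins by GFP to DsRed ratio, PSI derived from sequencing read proportions per bin multiplied by bin number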
- conditions_used: c terminus: a fixed tail appended

item_sequence	protein stability index
RLRGLLRVLRGRCGAGSRRRGRMA [P13C]	2.09
RLRGLLRVLRGRPGFGSRRRGRMA [A15F]	1.93
RLRGLLRVLRGRPGAGFRRRGRMA [S17F]	2.58
RLRGLLRVLRGRPGAGSRRRGRHA [M23H]	2.42
RHRGLLRVLRGRPGAGSRRRGRMA [L2H]	4.34
RLRGLLRVLRGRPGAGSRRRGRML [A24L]	1.64
RLRGQLRVLRGRPGAGSRRRGRMA [L5Q]	3.78
DLRGLLRVLRGRPGAGSRRRGRMA [R1D]	2.92
RLRGLLRVLRGRPGAGSRRRGRTA [M23T]	2.44
RLRGLLRVLRGRPGAGSRRRGRMP [A24P]	3.3
RLRGLLRVLRGRPGAGSHRRGRMA [R18H]	1.59
RLRGLLRVLRGRPGAGLRRRGRMA [S17L]	2.86
RLRGLLRVLRGRPGAGSRRRGRVA [M23V]	1.97
RLRGLLRVLRPRPGAGSRRRGRMA [G11P]	2.23
RLRGLLRVLRGTPGAGSRRRGRMA [R12T]	2.03
RLRGLLRVLRGRPGCGSRRRGRMA [A15C]	1.71
RLRGLLLVLRGRPGAGSRRRGRMA [R7L]	2.56
RLRGLLYVLRGRPGAGSRRRGRMA [R7Y]	2.41
RLRGLLRSLRGRPGAGSRRRGRMA [V8S]	1.93
RLRGLLRFLRGRPGAGSRRRGRMA [V8F]	2.83
RLRGLLRVLRGRPVAGSRRRGRMA [G14V]	2.04
FLRGLLRVLRGRPGAGSRRRGRMA [R1F]	1.53
RLKGLLRVLRGRPGAGSRRRGRMA [R3K]	2.83
RLRGLLGVLRGRPGAGSRRRGRMA [R7G]	2.86
RLRGLLRVLRGSPGAGSRRRGRMA [R12S]	2.19
RLRGLLRVLRGRPGAGSRNRGRMA [R19N]	1.71
RLRGLLRVLRGRPMAGSRRRGRMA [G14M]	1.92
RLRGLLRVLAGRPGAGSRRRGRMA [R10A]	1.96
RLRGLLRVLRGRPGRGSRRRGRMA [A15R]	2.46
RLRGLLRVLRGRPGAESRRRGRMA [G16E]	2.94
RLRGLLIVLRGRPGAGSRRRGRMA [R7I]	2.17
RLRGLLRVLRGRIGAGSRRRGRMA [P13I]	1.6
RLRGLLRVLRGRPGDGSRRRGRMA [A15D]	1.66
RLRGLLRVLPGRPGAGSRRRGRMA [R10P]	2.59
RLVGLLRVLRGRPGAGSRRRGRMA [R3V]	1.02
RLRGLLRVLRGRPGAGSRRRIRMA [G21I]	2.32
RLRGLLRVLRGRPGAGSRRRLRMA [G21L]	1.57
RLRGLLRVLSGRPGAGSRRRGRMA [R10S]	1.93
RLRGLLRKLRGRPGAGSRRRGRMA [V8K]	1.91
RLRELLRVLRGRPGAGSRRRGRMA [G4E]	2.08
RLMGLLRVLRGRPGAGSRRRGRMA [R3M]	1.54
RLRGLLRVKRGRPGAGSRRRGRMA [L9K]	3.26
RLRGLLRVLRGRPGAGSRRRGSMA [R22S]	1.99
RLRGLLRVLRGRPGAGSRRQGRMA [R20Q]	1.56
RLRGLLRVLRGRPGAGSGRRGRMA [R18G]	1.16
RLRGLLRVLRGRPGAGSRTRGRMA [R19T]	1.75
